Tested on: co-culture of three cancer cell lines
Experiment: Cell viability (CellTiter Glo) of compressed target pools, co-cultures of three cell lines (Target Compression)
Format: cell-based
Settings: 5 Pick 3, Pool 1 (REH, SUP-B15, CCRF-CFM)
Description: Total cell viability was measured for each cancer cell line using an Adenosine TriPhosphate (“ATP”) assay, and more specifically an ATP-based luminescence assay (i.e., CellTiter Glo). […] The DRS was calculated as a continuous function of multiple parameters of the non-linear dose-response curve, including the slope at the half-maximal effective concentration (also called “EC50”) and the top and bottom asymptotes of the dose-response curve. […]
ASSAY READOUT: DRS of pool
Reply briefly: the number, and no unit.

API: value(readout=DRS of pool, system=co-culture of three cancer cell lines) for record N#Cc1ccnc(N2C(=O)CC[C@H]2C(=O)N(c2cncc(F)c2)[C@H](C(=O)NC2CC(F)(F)C2)c2ccccc2Cl)c1
0.54

Queued: COc1c(OCCCN2CCOCC2)ccc2c1N=C(NC(=O)c1cnc(N)nc1)N1CCN=C21
10.53

Queued: CC1(C)CCC(CN2CCN(c3ccc(C(=O)NS(=O)(=O)c4ccc(NCC5CCOCC5)c([N+](=O)[O-])c4)c(Oc4cnc5[nH]ccc5c4)c3)CC2)=C(c2ccc(Cl)cc2)C1
14.50

Queued: Cc1[nH]c2ccccc2c1CCNCc1ccc(/C=C/C(=O)NO)cc1
17.85

====

Tested on: co-culture of three cancer cell lines
Assay: Cell viability (CellTiter Glo) of compressed target pools, co-cultures of three cell lines (Target Compression)
Assay type: cell-based
Conditions: 7 Pick 3, Pool 2 (SUP-B15, CCRF-HSB2, NALM-6)
Consider the following compounds; for each one, report its DRS of pool.
Reply briefly: the number, and no unit.

Query: DRS of pool; subject: N#Cc1ccnc(N2C(=O)CC[C@H]2C(=O)N(c2cncc(F)c2)[C@H](C(=O)NC2CC(F)(F)C2)c2ccccc2Cl)c1 [Ivosidenib]
0.54

Queued: CC1(C)CCC(CN2CCN(c3ccc(C(=O)NS(=O)(=O)c4ccc(NCC5CCOCC5)c([N+](=O)[O-])c4)c(Oc4cnc5[nH]ccc5c4)c3)CC2)=C(c2ccc(Cl)cc2)C1 [Venetoclax]
14.37

Queued: COc1c(OCCCN2CCOCC2)ccc2c1N=C(NC(=O)c1cnc(N)nc1)N1CCN=C21 [Copanlisib]
7.58

Queued: Cc1[nH]c2ccccc2c1CCNCc1ccc(/C=C/C(=O)NO)cc1 [Panobinostat]
18.41

====

Tested on: co-culture of three cancer cell lines
Assay: Cell viability (CellTiter Glo) of compressed target pools, co-cultures of three cell lines (Target Compression)
Assay type: cell-based
Details: 6 Pick 3, Pool 4 (SUP-B15, CCRF-HSB2, JURKAT)
Consider the following molecules; for each one, report its DRS of pool.
Reply briefly: the number, and no unit.

Query: DRS of pool; subject: CC1(C)CCC(CN2CCN(c3ccc(C(=O)NS(=O)(=O)c4ccc(NCC5CCOCC5)c([N+](=O)[O-])c4)c(Oc4cnc5[nH]ccc5c4)c3)CC2)=C(c2ccc(Cl)cc2)C1
13.22

Queued: N#Cc1ccnc(N2C(=O)CC[C@H]2C(=O)N(c2cncc(F)c2)[C@H](C(=O)NC2CC(F)(F)C2)c2ccccc2Cl)c1
0.61

Queued: COc1c(OCCCN2CCOCC2)ccc2c1N=C(NC(=O)c1cnc(N)nc1)N1CCN=C21
6.40

Queued: Cc1[nH]c2ccccc2c1CCNCc1ccc(/C=C/C(=O)NO)cc1
18.23
